Numbers sourced from PubChem BioAssay (NCATS).

# Tested on: ICS
# assay_method_text: qHTS profiling for inhibitors of Plasmodium falciparum proliferation (AID 504749); note: nearly all actives have a fitted effect of over 60% in size; note: potency is the fitted concentration of half-maximal effect
# settings: P. falciparum in erythrocytes, SYBR Green DNA, 72 h; series mostly up to 28.7 µM
# Protocol: NIH National Institute of Allergy and Infectious Diseases [NIAID] NIH Chemical Genomics Center [NCGC] […] Because mature erythrocytes lack DNA, only Plasmodium-derived DNA is detected. NCGC Assay Protocol Summary: The SYBR Green viability assay was adapted from a method described previously (Plouffe et al., 2008). […] The following morning, fluorescence intensity at 485(14) nm excitation and 535(25) nm emission wavelengths was measured on an EnVision (Perkin Elmer) plate reader. […]
Records with an inconclusive call do not appear. Calls of active or inactive are those of the source. Calls come from the whole dose curve; as a rule, active = well fitted inhibition curve with a large enough effect; inconclusive = small, poorly fitted or top-dose-only effect; inactive = flat fitted curve, though single readings scatter.
endpoint_label: Potency

Example cases with answers are listed next.
smiles_string	Potency
COc1ccc([C@@H]2Sc3ccccc3N(CCN(C)C)C(=O)[C@@H]2OC(C)=O)cc1	inactive
Fc1ccc(C(c2ccc(F)cc2)N2CCN(C/C=C/c3ccccc3)CC2)cc1	8.91 µM (active)
CCn1cc(C(=O)O)c(=O)c2cc3c(cc21)OCO3	inactive
Cc1ccc(Cl)c(Nc2ccccc2C(=O)O)c1Cl	inactive
CN(C)C(=O)Oc1ccc[n+](C)c1	inactive

Complete the entry with Potency for "CCN1CCC[C@H]1CNC(=O)c1c(O)c(Cl)cc(Cl)c1OC"
inactive

Complete the entry with Potency for "Cc1nnc(SCC2=C(C(=O)O)N3C(=O)[C@@H](NC(=O)Cn4cnnn4)[C@H]3SC2)s1"
inactive

Complete the entry with Potency for "COC(=O)[C@H]1[C@H]2C[C@@H]3c4[nH]c5cc(OC)ccc5c4CCN3C[C@H]2C[C@@H](OC(=O)c2cc(OC)c(OC)c(OC)c2)[C@@H]1OC"
3.55 µM (active)

Complete the entry with Potency for "CCc1cccc(N(C)C(N)=Nc2cccc3ccccc23)c1"
2.82 µM (active)

Complete the entry with Potency for "C[N+](C)(C)CCCCCCCCCC[N+](C)(C)C"
2.24 µM (active)

* * *

# assay_method_text: NFAT Signaling Pathway (AID 444);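 note: carbachol stimulus at about its EC50 of 1 µM final; % is set by controls: 0 for no effect and ±100 for the full control effect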
# settings: Jurkat NFAT-bla M1, carbachol, beta-lactamase ratio, 5 h; at 38 µM (top of the series)
Results filed as inconclusive are left out.
endpoint_label: activity change, negative = inhibition (%)
Please give a number only; it is taken to be in %.

Complete the entry with activity change, negative = inhibition for "C[n+]1cc2c3c(ccc2c2ccc4cc5c(cc4c21)OCO5)OCO3"
-48.1

Complete the entry with activity change, negative = inhibition for "CC(=O)Nc1nnc(S(N)(=O)=O)s1"
2.29

Complete the entry with activity change, negative = inhibition for "CN(C)CCCN1c2ccccc2Sc2ccccc21"
-83.6

Complete the entry with activity change, negative = inhibition for "Brc1c(NC2=NCCN2)ccc2nccnc12"
1.97

Complete the entry with activity change, negative = inhibition for "CCO/C([O-])=N/c1c[n+](N2CCOCC2)no1"
-9.67

Complete the entry with activity change, negative = inhibition for "C[C@H](CS)C(=O)N1CCC[C@H]1C(=O)O"
-1.57

Complete the entry with activity change, negative = inhibition for "NC(=O)N1c2ccccc2C=Cc2ccccc21"
3.87

Complete the entry with activity change, negative = inhibition for "C#CCN(C)CCCOc1ccc(Cl)cc1Cl"
-1.82

Complete the entry with activity change, negative = inhibition for "Cc1nc2c([nH]1)c(=O)n(C)c(=O)n2Cc1ccco1"
-9.82

Complete the entry with activity change, negative = inhibition for "CC[N+](C)(C)c1cccc(O)c1"
-18.1

Complete the entry with activity change, negative = inhibition for "CCC(=O)c1ccc2c(c1)N(CCCN(C)C)c1ccccc1S2"
-89.3

Complete the entry with activity change, negative = inhibition for "CCN1CCc2nc(N)oc2CC1"
-7.89

Complete the entry with activity change, negative = inhibition for "COc1cc2c(cc1OC)-c1cc(=Nc3c(C)cc(C)cc3C)n(C)c(=O)n1CC2"
-16.6
